subjectOfTest: UniProt:P23977
protocolText: Inhibition of [3H]WIN-35428 binding to dopamine transporter of rat striatum
Assay type: tissue-based
assayReadout: pIC50
Answers are plain numbers, as −log10 of the molar value.

Sample records with pIC50:
molecule | pIC50
COc1ccc(CN2CCN3C[C@@H]2CC[C@H]3C(c2ccccc2)c2ccccc2)cc1 | 7.65
N#Cc1ccc(CNC2CCC(C(c3ccccc3)c3ccccc3)NC2)cc1 (stereo not given) | 7.95
COc1ccc(CNC2CCC(C(c3ccccc3)c3ccccc3)NC2)cc1 (stereo not given) | 7.32
Fc1ccc(CNC2CCC(C(c3ccccc3)c3ccccc3)N(Cc3ccc(F)cc3)C2)cc1 (stereo not given) | 5.91
CN1CCN2CC1CCC2C(c1ccccc1)c1ccccc1 (stereo not given) | 5.33

Quick one: give me pIC50 for each item below, same order please.
1. CN(Cc1ccc(F)cc1)C1CCC(C(c2ccccc2)c2ccccc2)N(C)C1 (stereo not given)
2. Fc1ccc(CCN2CCN3CC2CCC3C(c2ccccc2)c2ccccc2)cc1 (stereo not given)

1. 6.65
2. 6.25

====

subjectOfTest: Sodium-dependent dopamine transporter (Rattus norvegicus)
protocolText: Ratio of IC50 for [3H]DA uptake to and dopamine transporter binding
assayReadout: Selectivity
Answers are plain numbers.

Sample records with Selectivity:
molecule | subjectOfTest | Selectivity
COc1ccc(CN2CCN3C[C@@H]2CC[C@H]3C(c2ccccc2)c2ccccc2)cc1 | Sodium-dependent dopamine transporter (Rattus norvegicus) | 0.8
COc1ccc(CN2CCN3C[C@H]2CC[C@@H]3C(c2ccccc2)c2ccccc2)cc1 | Sodium-dependent dopamine transporter (Rattus norvegicus) | 0.8
COc1ccc(CNC2CCC(C(c3ccccc3)c3ccccc3)NC2)cc1 (centres undefined) | Sodium-dependent dopamine transporter (Rattus norvegicus) | 0.85

As a next step, examine the molecule that follows.
Value lookup for Selectivity; key = N#Cc1ccc(CNC2CCC(C(c3ccccc3)c3ccccc3)NC2)cc1 (centres undefined)
0.8

====

subjectOfTest: Norepinephrine transporter (Rattus norvegicus, UniProt Q9WTR4)
Sequence (Q9WTR4 whole entry): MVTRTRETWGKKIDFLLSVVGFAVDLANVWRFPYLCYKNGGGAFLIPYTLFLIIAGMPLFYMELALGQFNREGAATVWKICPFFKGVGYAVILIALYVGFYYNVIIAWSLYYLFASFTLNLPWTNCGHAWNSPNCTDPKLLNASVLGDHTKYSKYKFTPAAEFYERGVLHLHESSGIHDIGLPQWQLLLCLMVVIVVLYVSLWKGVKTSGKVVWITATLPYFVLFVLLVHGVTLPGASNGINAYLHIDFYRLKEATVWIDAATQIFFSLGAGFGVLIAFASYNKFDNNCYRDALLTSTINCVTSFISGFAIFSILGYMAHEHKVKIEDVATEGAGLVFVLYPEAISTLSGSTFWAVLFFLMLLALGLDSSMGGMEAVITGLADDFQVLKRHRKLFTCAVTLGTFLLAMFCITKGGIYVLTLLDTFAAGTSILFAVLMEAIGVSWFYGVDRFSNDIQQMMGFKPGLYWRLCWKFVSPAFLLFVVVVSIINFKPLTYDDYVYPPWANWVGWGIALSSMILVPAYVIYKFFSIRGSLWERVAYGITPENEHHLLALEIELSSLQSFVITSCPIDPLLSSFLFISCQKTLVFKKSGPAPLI
assayReadout: IC50 (µM)
Answers are plain numbers, in µM.

Quick one: give me IC50 for each item below, same order please.
1. COc1ccc(CNC2CCC(C(c3ccccc3)c3ccccc3)NC2)cc1 (stereo not given)
2. O=S(=O)(Nc1ccc(CN2CCN3CC2CCC3C(c2ccccc2)c2ccccc2)cc1)c1ccc(Cl)cc1 (stereo not given)
3. Fc1ccc(CNC2CCC(C(c3ccccc3)c3ccccc3)N(Cc3ccc(F)cc3)C2)cc1 (stereo not given)
4. Fc1ccc(CNC2CCC(C(c3ccccc3)c3ccccc3)NC2)cc1 (stereo not given)

[1.11, 3.48, 12.6, 1.42]

====

Provide the reported Selectivity of each item.
subjectOfTest: Monoamine transporters; serotonin & dopamine (Rattus norvegicus) (UniProt P31652+P23977)
Sequence (P23977 whole entry, looked up): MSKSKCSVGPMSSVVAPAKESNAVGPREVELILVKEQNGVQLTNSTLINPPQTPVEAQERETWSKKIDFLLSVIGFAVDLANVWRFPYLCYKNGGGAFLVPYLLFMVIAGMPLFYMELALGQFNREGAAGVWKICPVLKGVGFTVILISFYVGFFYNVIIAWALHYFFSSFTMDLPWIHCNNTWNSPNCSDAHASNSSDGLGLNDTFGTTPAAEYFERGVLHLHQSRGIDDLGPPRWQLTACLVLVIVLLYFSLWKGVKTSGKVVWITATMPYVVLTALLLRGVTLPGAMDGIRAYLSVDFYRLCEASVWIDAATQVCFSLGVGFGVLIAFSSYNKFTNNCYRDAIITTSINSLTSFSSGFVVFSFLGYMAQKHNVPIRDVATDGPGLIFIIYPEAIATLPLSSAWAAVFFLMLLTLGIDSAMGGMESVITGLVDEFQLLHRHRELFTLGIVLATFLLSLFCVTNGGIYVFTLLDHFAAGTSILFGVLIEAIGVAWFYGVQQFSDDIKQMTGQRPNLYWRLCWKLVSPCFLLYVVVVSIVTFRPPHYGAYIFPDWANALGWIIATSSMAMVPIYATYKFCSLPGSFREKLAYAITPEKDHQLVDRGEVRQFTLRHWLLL
Sequence (P31652 whole entry, looked up): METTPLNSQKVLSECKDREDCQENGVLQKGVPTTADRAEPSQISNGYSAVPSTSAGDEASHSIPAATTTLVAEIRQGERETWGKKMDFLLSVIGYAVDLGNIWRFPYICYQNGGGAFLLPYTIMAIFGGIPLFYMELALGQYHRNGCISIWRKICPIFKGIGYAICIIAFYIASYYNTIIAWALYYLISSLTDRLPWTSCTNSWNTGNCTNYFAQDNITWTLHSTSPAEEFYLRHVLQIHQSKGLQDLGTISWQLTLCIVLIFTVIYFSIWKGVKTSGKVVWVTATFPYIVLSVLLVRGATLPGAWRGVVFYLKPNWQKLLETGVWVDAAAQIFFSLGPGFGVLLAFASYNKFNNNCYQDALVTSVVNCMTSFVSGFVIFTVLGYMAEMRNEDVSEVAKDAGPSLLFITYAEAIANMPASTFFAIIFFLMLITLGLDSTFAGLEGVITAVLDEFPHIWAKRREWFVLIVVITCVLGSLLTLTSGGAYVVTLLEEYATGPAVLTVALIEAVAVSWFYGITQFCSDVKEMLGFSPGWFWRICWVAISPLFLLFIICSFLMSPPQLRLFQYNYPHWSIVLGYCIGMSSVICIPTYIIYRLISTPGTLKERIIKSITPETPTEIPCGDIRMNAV
protocolText: Relative binding affinity for serotonin and dopamine transporters, ratio of IC50
Format: protein assay
One number for each entry.

molecule | Selectivity
CN1CCN2CC1CCC2C(c1ccccc1)c1ccccc1 (centres undefined) | 33

Quick one: give me Selectivity for each item below, same order please.
1. N#Cc1ccc(CNC2CCC(C(c3ccccc3)c3ccccc3)NC2)cc1 (centres undefined)
2. CN(Cc1ccc(F)cc1)C1CCC(C(c2ccccc2)c2ccccc2)N(C)C1 (centres undefined)
3. COc1ccc(CN2CCN3C[C@H]2CC[C@@H]3C(c2ccccc2)c2ccccc2)cc1

38
10
20

====

subjectOfTest: Sodium-dependent dopamine transporter (Rattus norvegicus, UniProt P23977)
Sequence (P23977 whole entry): as the sequence (P23977 whole entry, looked up) above
protocolText: Concentration required to inhibit [3H]DA (dopamine) uptake into rat striatal synaptosomes
Format: functional, subcellular, Brain
Lab note - cut at 40 nM for IC50: class 1 if strictly below, class 0 if not.

Quick check: IC50 of COc1ccc(CN2CCN3C[C@@H]2CC[C@H]3C(c2ccccc2)c2ccccc2)cc1 under 40 nM?
class 1

Thanks! And COc1ccc(CN2CCN3C[C@H]2CC[C@@H]3C(c2ccccc2)c2ccccc2)cc1 ?
class 0

Thanks! And Fc1ccc(CNC2CCC(C(c3ccccc3)c3ccccc3)NC2)cc1 (stereo not given) ?
class 0

Thanks! And N#Cc1ccc(CNC2CCC(C(c3ccccc3)c3ccccc3)NC2)cc1 (stereo not given) ?
class 1
